Values compiled from patent US20230272056A1.

- system: T1, human LAP-TGFB1 Fc fusion (human)
- T1 construct: also called human LAP-TGFβ1-Fc; human LAP-TGFβ-Fc isoform 1
- T1 sequence (chain, as listed by the source limits assumed): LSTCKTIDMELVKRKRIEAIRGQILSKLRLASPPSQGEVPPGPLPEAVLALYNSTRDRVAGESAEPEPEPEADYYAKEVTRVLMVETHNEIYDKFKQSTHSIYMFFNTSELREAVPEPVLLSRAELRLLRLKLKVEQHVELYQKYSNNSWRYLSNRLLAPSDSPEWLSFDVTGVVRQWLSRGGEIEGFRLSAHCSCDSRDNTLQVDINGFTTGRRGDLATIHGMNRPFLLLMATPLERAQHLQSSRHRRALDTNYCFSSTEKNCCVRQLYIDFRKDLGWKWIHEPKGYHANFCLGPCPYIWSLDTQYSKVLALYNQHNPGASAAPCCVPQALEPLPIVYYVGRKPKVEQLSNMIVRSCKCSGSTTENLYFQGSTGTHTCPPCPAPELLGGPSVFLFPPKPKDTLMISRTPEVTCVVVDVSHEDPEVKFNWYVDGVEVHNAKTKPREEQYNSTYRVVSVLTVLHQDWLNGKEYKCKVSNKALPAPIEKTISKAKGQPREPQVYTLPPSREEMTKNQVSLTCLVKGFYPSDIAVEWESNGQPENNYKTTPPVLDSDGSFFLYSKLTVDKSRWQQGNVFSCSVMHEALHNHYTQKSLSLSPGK
- measurement description: SPR pH 7.4, antigen-Fc captured, Fab analyte
# koff per entry
Hi! Could you send only the number? It should be in s⁻¹, unit omitted.

binder	reported endpoint	obs value
20E6 Fab (80BGJ/85BIT) (Fab, V domains shown, also called 20E6 (80BGJ); 20E6 (85BIT)) VH: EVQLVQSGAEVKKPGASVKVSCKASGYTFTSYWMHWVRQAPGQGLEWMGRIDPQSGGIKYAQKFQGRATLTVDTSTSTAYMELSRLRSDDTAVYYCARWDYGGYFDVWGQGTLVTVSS VL: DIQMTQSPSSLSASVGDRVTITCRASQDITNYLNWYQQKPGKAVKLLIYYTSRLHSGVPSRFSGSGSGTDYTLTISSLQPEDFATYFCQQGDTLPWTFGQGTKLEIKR	koff	0.0769
58BLH (Fab, V domains shown, also called 10BLM Fab) VH: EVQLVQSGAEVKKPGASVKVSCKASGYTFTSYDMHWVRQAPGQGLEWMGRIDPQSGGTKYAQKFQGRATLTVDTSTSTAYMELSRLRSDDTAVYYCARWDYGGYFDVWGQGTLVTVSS VL: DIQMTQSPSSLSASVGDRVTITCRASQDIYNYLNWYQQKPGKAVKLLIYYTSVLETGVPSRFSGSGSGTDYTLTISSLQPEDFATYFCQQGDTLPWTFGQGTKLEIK	koff	0.000313
64BLH (Fab, V domains shown, also called 16BLM Fab) VH: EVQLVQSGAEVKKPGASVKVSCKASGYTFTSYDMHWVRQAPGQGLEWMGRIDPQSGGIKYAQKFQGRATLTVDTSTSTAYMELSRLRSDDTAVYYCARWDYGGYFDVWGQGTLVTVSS VL: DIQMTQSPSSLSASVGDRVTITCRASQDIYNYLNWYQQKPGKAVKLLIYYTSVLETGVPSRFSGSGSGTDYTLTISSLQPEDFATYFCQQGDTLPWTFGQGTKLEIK	koff	0.0005

Moving on to another binder below.
Request: For the binder shown here, 63BLH (Fab, V domains shown, also called 15BLM Fab; 015BLM Fab) VH: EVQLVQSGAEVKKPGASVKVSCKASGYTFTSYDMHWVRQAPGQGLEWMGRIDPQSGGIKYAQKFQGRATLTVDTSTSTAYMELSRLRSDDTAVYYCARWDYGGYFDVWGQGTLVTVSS VL: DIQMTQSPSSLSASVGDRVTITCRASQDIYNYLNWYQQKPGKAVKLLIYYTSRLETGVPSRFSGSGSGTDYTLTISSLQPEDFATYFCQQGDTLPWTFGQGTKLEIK , give the reported koff.
Result: 0.00198
